System: S. aureus, ATCC BAA-44 (methicillin-resistant strain)
Assay type: cell-based, Staphylococcus aureus
Applied Conditions: ATCC BAA-44, 24 h
Non-standard residues stand in square brackets, D forms with d. Residues, ends and D or L forms follow the SMILES beside them. *: point of attachment. Leu(ol) = CC(C)C[C@H](N)CO; Octanoyl = CCCCCCCC(=O)*; Aib = CC(C)(N)C(=O)O
Please respond with reported MIC S. aureus for every item in the list.
Write down the numeric answer in µM and omit the unit.

Input: Form: Entry = CCCCCCCC(=O)N[C@@H](CC(C)C)C(=O)NCC(=O)N[C@@H](CC(C)C)C(=O)NC(C)(C)C(=O)NCC(=O)NCC(=O)N[C@@H](CC(C)C)C(=O)N[C@@H](CC(C)C)C(=O)NCC(=O)N[C@H](C(=O)N[C@H](CO)CC(C)C)[C@@H](C)CC [L1L8] (Octanoyl-LGL[Aib]GGLLGI[Leu(ol)]) | System = S. aureus, ATCC BAA-44 (methicillin-resistant strain) | MIC S. aureus = ____
Output: 32

Input: Query `CCCCCCCC(=O)NC(C)(C)C(=O)NCC(=O)N[C@@H](CC(C)C)C(=O)NC(C)(C)C(=O)N[C@@H](CCCCN)C(=O)N[C@@H](CCCCN)C(=O)N[C@@H](CC(C)C)C(=O)NC(C)(C)C(=O)NCC(=O)N[C@H](C(=O)N[C@H](CO)CC(C)C)[C@@H](C)CC` next
Output: 4

Input: One more molecule: CCCCCCCC(=O)NC(C)(C)C(=O)N[C@@H](CCCCN)C(=O)N[C@@H](CC(C)C)C(=O)NC(C)(C)C(=O)NCC(=O)N[C@@H](CCCCN)C(=O)N[C@@H](CC(C)C)C(=O)NC(C)(C)C(=O)NCC(=O)N[C@H](C(=O)N[C@H](CO)CC(C)C)[C@@H](C)CC [K2K6] (Octanoyl-[Aib]KL[Aib]GKL[Aib]GI[Leu(ol)])
Output: 2.8

====

Could you please report measured MIC S. epidermis for the items listed next?
Test system: S. epidermidis ATCC 700565
Type: cell-based, Staphylococcus epidermidis
Applied Conditions: after 24 h at 37 °C, broth microdilution in LB, 5×10^5 CFU/ml; ±SE, N≥4; peptide dose range 0–64 µM
Non-standard residues stand in square brackets, D forms with d. Residues, ends and D or L forms follow the SMILES beside them. *: point of attachment. Leu(ol) = CC(C)C[C@H](N)CO; Octanoyl = CCCCCCCC(=O)*; Aib = CC(C)(N)C(=O)O
The reply should contain only the number, in µM.

Input: Can you share its MIC S. epidermis? I mean this compound: CCCCCCCC(=O)NC(C)(C)C(=O)NCC(=O)N[C@@H](CC(C)C)C(=O)NC(C)(C)C(=O)N[C@@H](CCCCN)C(=O)NCC(=O)N[C@@H](CC(C)C)C(=O)NC(C)(C)C(=O)NCC(=O)N[C@H](C(=O)N[C@H](CO)CC(C)C)[C@@H](C)CC [K5] (Octanoyl-[Aib]GL[Aib]KGL[Aib]GI[Leu(ol)])
Output: 2

Input: Also, CCCCCCCC(=O)N[C@@H](CC(C)C)C(=O)NCC(=O)N[C@@H](CC(C)C)C(=O)NC(C)(C)C(=O)NCC(=O)NCC(=O)N[C@@H](CC(C)C)C(=O)NC(C)(C)C(=O)N[C@@H](CCCCN)C(=O)N[C@H](C(=O)N[C@H](CO)CC(C)C)[C@@H](C)CC [L1K9] (Octanoyl-LGL[Aib]GGL[Aib]KI[Leu(ol)]) please.
Output: 4.6

Input: Also CCCCCCCC(=O)NC(C)(C)C(=O)NCC(=O)N[C@@H](CC(C)C)C(=O)NC(C)(C)C(=O)N[C@@H](CCCCN)C(=O)NC(C)(C)C(=O)N[C@@H](CC(C)C)C(=O)NC(C)(C)C(=O)NCC(=O)N[C@H](C(=O)N[C@H](CO)CC(C)C)[C@@H](C)CC [K5U6] (Octanoyl-[Aib]GL[Aib]K[Aib]L[Aib]GI[Leu(ol)]) , if possible.
Output: 2.4
